- tested on: T1, mouse VEGF164 (mouse, UniProt Q00731)
- T1 chain: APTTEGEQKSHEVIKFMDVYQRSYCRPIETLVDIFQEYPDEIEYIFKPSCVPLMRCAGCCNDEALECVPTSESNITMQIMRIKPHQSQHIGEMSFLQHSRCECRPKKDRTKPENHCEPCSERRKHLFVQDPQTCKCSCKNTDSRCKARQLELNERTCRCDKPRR
- assay info: SPR, pH 5
# pKd per record follows
# pKd = -log10(concentration in molar units)

511-min (antibody, V domains shown) VH: EVQLVESGGGLVQPGGSLRLSCAASGFSLNTYYMNWVRQAPGKGLEWVSIIAPDDTTYYASWAKSRFTISRDNSKNTLYLQMNSLRAEDTAVYYCAKSGDTTAWGADIWGQGTLVTVSS VL: EIVMTQSPSTLSASVGDRVIITCQASQSINIWCSWYQQKPGKAPKLLIYRASTLASGVPSRFSGSGSGAEFTLTISSLQPDDFATYYCQANYAYSAGYGAAFGQGTKLTVLG = 8.79

# input Would you kindly share the measured pKd for 578-min (antibody, V domains shown) VH: EVQLVESGGGLVQPGGSLRLSCAASGFSLTDYYYMTWVRQAPGKGLEWVSFIDPDDDPYYATWAKGRFTISRDNSKNTLYLQMNSLRAEDTAVYYCAKGDHNSGWGLDIWGQGTLVTVSS VL: EIVMTQSPSTLSASVGDRVIITCQASEIIHSWLAWYQQKPGKAPKLLIYLASTLASGVPSRFSGSGSGAEFTLTISSLQPDDFATYYCQNVYLASTNGANFGQGTKLTVLG ?
# output 7.97
